Biological target: B.1.1.7 Spike (SARS-CoV2)
Measured parameter: Kd
Provide a numeric answer, followed by its unit.

Exercise: Fill in reported Kd for this entry: Ab_20 scFv-Fc (scFv, V domains shown) VH: QVQLVQSGGGSVKPGGSLRLSCAASGYRLSDYYMHWVRQAPGKGLEWVANIKQDGSEKYYVDSVKGRFTISRDNAKNSLYLQMNSLRAEDTAVYYCARVRGWSRGYFDYWGQGTLVTVSS VL: NFMLTQPHSVSESPGKTVTISCTGSSGSIASNYVQWYQQRPGSAPTTVIYEDNQRPSGVPDRFSGSIDSSSNSASLLISGLKTEDEADYYCQSYDSSNHWVFGGGTKLTVL
Solution: 2.6 pM

Exercise: Fill in reported Kd for this entry: Ab_18 scFv-Fc (scFv, V domains shown) VH: EVQLVQSGGGVVQPGRSLRVSCAASGFSFSRYGMHWVRQAPGKGLEWVAFIRHDGSKKYYADSVEGRFTISRDNSRNTVSLEMNSLRGEDTAVYYCAKDGRLEAALDDWGQGTLVTVSS VL: NFMLTQPHSMSGSAGKTVTVSCIRSSGSIANNFVQWYQQRPGSAPTTVIYEDNQRPSGVPDRFSGSIDSSSNSASLTISGLKTEDEADYYCQSYDSSNLVFGGGTRLTVL
Solution: 9.28 pM

Exercise: Answer with the recorded Kd for the binder listed here: S1-RBD-R3-T1-F5 (Ab2-7) scFv-Fc (scFv, V domains shown) VH: QVTLKESGPTRVKPTQTLTLTCTFSGFSLSTTGVGVGWIRQPPGKALEWLALIYWNDDKRYSPSLKSRLTITKDTSKNQVVLTMTNMDPVDTATYYCARISGSGYFYPFDIWGQGTTVTVSS VL: NFMLTQPHSVSESPGKTVTISCTRSSGSIASNYVQWYQQRPGSSPTTVIYEDNQRPSGVPDRFSGSIDSSSNSASLTISGLKAEDEADYYCQSYDSSSLWVFGGGTKLTVL
Solution: 379 pM

Exercise: For S1-R3-T1-C4 (Ab_8) scFv-Fc (scFv, V domains shown) VH: QVQLVQSGAEVKKPGSSVKVSCKASGGTFSSYAISWLRQAPGQGLEWMGWINPNSGGTNYAQKFQGRVTMTRDTSISTAYMELSRLRSDDTAVYYCARGSGGYYLGWGQGTLVTVSS VL: QPGLTQPPSVSKGLRQTATLTCTGNSNNVGNQGAAWLQQHQGHPPKLLSYMNNNRPPGISERFSASRSGNTASLTITGLQPEDEADYYCSAWDSSLSRWVFGGGTKLSVL , write its Kd.
Solution: 2.29 pM

Exercise: Give the reported value of Kd for this record: Ab_14 scFv-Fc (scFv, V domains shown) VH: QVQLQQSGPGLVKPSQTLSLTCAISGDSVSSNSAAWNWIRQSPARGLEWLGRTYYRSRWYNDYAISMKSRITINPDTSKNQFSLQLESVTPEDTAVYYCAREIRGFDYWGQGTLVTVSS VL: QSVLTQPPSASGSPGQSVTISCTGTSSDVGAYNFVSWYQHHPGKAPKLIIYDFNKRPSGVPDRFSGSKSGNTASLTVSGLQADDEADYYCSSYAGSNNFDVVFGGGTKLTVL
Solution: 7.98 pM

Exercise: Please look at this binder and report its Kd: Ab_28 scFv-Fc (scFv, V domains shown) VH: QVTLKESGPGLVNPSETLSLTCTVSGASISNSFWSWIRQSPGKGLEWIGYTSYSGNSIYNPSLKSRLTMSIDTSKNQLSLNLRSLTAADTAVYYCARREWIKGHFDYWGQGTLVTVSS VL: NFMLTQPHSVSESPGKTVTISCTGSGGSIASNYVQWYQQRPGSAPTTVIYEDNQRPSGVPDRFSGSIDSSSNSASLTISGLKTEDEADYYCQSYDSSNPVVFGGGTKLTVL
Solution: 1.49 pM

Exercise: Give me measured Kd, please, for this binder: Ab_21 scFv-Fc (scFv, V domains shown) VH: QVQLVQSGGGLVQPGGSLRLSCATSGFTFDDYAMHWVRQAPGKGLEWVSGISWNSGSIGYVDSVKGRFTISRDNRNNKVYLQMNNLRAEDTAVYYCARDWWGSIDHWGLGTLVTVSS VL: QSALTQPRSVSGSPGQSVTISCTGTSSDVGGYDYVSWYQQHPGKAPKLIIYDVSKRPSGVPDRFSGSKSGNTASLTVSGLQAEDEADYYCSSYTSSSPVVFGGGTKLTVL
Solution: 1.47 pM

Exercise: Identify measured Kd corresponding to Ab_27 scFv-Fc (scFv, V domains shown) VH: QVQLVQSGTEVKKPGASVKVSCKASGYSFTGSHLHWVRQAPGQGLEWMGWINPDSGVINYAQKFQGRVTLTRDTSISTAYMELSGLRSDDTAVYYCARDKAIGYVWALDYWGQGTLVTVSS VL: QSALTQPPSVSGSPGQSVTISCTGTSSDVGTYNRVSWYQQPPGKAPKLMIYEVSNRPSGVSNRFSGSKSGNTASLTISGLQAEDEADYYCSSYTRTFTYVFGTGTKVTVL
Solution: 1.57 pM

Exercise: Supply recorded Kd for Ab_19 scFv-Fc (scFv, V domains shown) VH: EVQLVESGAEVKKPGESLKISCKGSGYSFTSYWIGWVRQMPGKGLEWMGIIYPGDSDTRYSPSFQGQVTISADKSISTAYLQWSSLKASDTAMYYCARRGDLDAFDIWGQGTMVTVSS VL: QPGLTQPPAASGTPGQRVTVSCSGASANIGSNAVSWFKQFPETAPRLLISGNTHRPSGVPDRVSGSKSGTSASLTISGLQSDDEADYYCAAWDDSLNGYVFGSGTKVTVL here.
Solution: 10.3 pM

Exercise: Return reported Kd. Input binder: Ab_25 scFv-Fc (scFv, V domains shown) VH: QVQLVQSGGGLVQPGGSLRLSCAASGFTFSSYWMSWVRQAPGKGLEWVANIKQDGSEKYYVDSVKGRFTISRDNAKNSLYLQMNSLRAEDTAVYYCARGFYYYGAFDIWGQGTTVTVSS VL: NFMLTQPHSVSESPGKTVTISCTGSSGSIASNYVQWYQQRPGSAPTTVIYEDNQRPSGVPDRFSGSIGSSSNSASLTISGLKTEDEADYYCQSYDSSNHWVFGGGTKLTVL
Solution: 427 pM
